B1: Azoarcus group I ribozyme (parent)
chain: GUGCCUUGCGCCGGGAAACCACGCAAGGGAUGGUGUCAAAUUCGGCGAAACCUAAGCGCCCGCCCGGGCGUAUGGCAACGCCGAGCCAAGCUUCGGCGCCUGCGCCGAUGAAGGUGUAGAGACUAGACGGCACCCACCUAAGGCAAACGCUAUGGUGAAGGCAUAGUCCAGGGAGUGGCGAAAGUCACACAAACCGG

Variants of: B1
test: reverse-splicing fitness (ratio to wild type); higher = more active; in vitro selection; Mg2+ level not given
Note that class boundaries on reverse-splicing fitness are A = under 0.004, B = from 0.004 up to 0.01, C = 0.01 and over

Challenge: Record C82U A111G A120U C150G C169U U176G — which class?
Response given: A

Challenge: Band for C82A A111U A120U A145U C150G C169U U176C ?
Response given: A

Challenge: Note: place this variant into its band. Item: A111G A120C U176A
Response given: C

Challenge: Quick check: band for A111C A145U C169U
Response given: C

Challenge: Form: Item = A111U A120U C150U C169G U176G ; Class = ?
Response given: A

Others:
Challenge: Determine which band this variant sits in: C82A A111G A120U A145U C150A C169G U176A
Response given: A

Challenge: Lab log: C82A A120G A145U C150G C169A U176G — assign reverse-splicing fitness category
Response given: A

Challenge: Textbook exercise: identify the category of the variant given here, C82U A111U A120U C150U U176G , according to its measured value.
Response given: A

Challenge: // return the class label for C82U A111G A145C C150G C169G
Response given: B

Challenge: Please let me know in which category the item C82G A111G A145U C150A U176A belongs.
Response given: C

Challenge: # bin label for C82G A120C C150A U176G
Response given: C

Challenge: Class for C82U A111C A120G A145G C150U C169U U176C ?
Response given: C
